The values you see were collected from patent US20120142098A1.

biological target: T1, human TLR4/MD2 complex expressed on the cell surface (human, UniProt O00206 24-839; Q9Y6Y9 19-160); assay: FACS on CHO stable cell line expressing human TLR4-MD2 complex
T1 construct: also called CHO TLR4/MD2 transfectants
T1 sequence (O00206 24-839 limits assumed, chain 1 of 2): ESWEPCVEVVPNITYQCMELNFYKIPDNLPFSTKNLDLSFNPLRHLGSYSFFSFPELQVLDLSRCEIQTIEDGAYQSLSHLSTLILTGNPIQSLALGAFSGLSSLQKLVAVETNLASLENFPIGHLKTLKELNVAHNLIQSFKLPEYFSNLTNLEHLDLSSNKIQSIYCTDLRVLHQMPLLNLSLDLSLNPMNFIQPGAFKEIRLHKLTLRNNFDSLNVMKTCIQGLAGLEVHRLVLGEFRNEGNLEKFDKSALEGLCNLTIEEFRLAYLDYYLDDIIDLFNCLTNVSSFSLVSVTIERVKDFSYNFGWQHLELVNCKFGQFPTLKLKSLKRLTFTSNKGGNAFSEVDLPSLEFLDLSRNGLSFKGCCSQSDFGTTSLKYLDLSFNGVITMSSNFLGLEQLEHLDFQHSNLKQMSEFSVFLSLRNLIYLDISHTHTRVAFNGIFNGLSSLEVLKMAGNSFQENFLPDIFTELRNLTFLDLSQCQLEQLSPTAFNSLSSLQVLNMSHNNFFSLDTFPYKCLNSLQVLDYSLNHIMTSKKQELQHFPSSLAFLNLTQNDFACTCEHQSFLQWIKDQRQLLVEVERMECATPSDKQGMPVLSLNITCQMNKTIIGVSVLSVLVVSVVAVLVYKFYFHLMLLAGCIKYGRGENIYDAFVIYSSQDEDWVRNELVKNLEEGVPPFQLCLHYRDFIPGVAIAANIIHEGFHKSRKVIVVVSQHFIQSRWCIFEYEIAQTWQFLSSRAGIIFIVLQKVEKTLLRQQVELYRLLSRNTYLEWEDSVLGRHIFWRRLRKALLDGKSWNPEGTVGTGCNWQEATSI
T1 sequence (Q9Y6Y9 19-160 R56G limits assumed, chain 2 of 2): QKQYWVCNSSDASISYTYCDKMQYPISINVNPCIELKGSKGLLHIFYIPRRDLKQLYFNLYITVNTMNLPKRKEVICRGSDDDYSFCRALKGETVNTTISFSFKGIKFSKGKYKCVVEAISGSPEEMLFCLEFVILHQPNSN
reported.metric: binding result

binder="C mu 296-318 CH2 chimeric IgG1 15C1 (antibody, V domains shown, copies: 2 + 2) VH: DVQLQESGPDLIQPSQSLSLTCTVTGYSITGGYSWHWIRQFPGNKLEWMGYIHYSGYTDFNPSLKTRISITRDTSKNQFFLQLNSVTTEDTATYYCARKDPSDGFPYWGQGTLVTVSA VL: DIVMTQSPATLSVTPGDRVSLSCRASQSISDHLHWYQQKSHESPRLLIKYASHAISGIPSRFSGSGSGTDFTLSIKSVEPEDIGVYYCQNGHSFPLTFGAGTKLELK" result=binds
binder="B mu 319-340 CH2 chimeric IgG1 15C1 (antibody, V domains shown, It is built that way here; copies: 2 + 2) VH: DVQLQESGPDLIQPSQSLSLTCTVTGYSITGGYSWHWIRQFPGNKLEWMGYIHYSGYTDFNPSLKTRISITRDTSKNQFFLQLNSVTTEDTATYYCARKDPSDGFPYWGQGTLVTVSA VL: DIVMTQSPATLSVTPGDRVSLSCRASQSISDHLHWYQQKSHESPRLLIKYASHAISGIPSRFSGSGSGTDFTLSIKSVEPEDIGVYYCQNGHSFPLTFGAGTKLELK" result=binds
binder="A mu 231-261 CH2 chimeric IgG1 15C1 (antibody, V domains shown, It is built that way here; copies: 2 + 2) VH: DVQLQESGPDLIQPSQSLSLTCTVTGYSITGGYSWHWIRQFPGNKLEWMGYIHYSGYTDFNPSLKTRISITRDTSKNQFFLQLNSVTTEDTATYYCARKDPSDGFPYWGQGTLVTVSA VL: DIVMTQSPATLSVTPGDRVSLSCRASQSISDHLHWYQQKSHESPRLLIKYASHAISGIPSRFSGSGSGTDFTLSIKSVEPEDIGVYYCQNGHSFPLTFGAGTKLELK" result=binds
